# Test system: SR leukemia
# Test: NCI-60 one-dose screen, 48 h (100 = growth as untreated, 0 = no growth, -100 = all killed)
# Stated conditions: 10 µM unless noted
The panel holds about 83,000 compounds, 20% with a hit somewhere; the sample as a whole holds those more often.
Classify by growth. Ranges: class 1 (below 10%), class 2 (10% to below 50%), class 3 (50% or more)

{"columns": ["Compound", "System under test", "Qualitative label"],
 "data": [
  ["CCn1c2ccc(/C=N/N(C)S(=O)(=O)CCN(C)C)cc2c2cc(/C=N/N(C)S(=O)(=O)CCN(C)C)ccc21", "SR leukemia", "class 1"],
  ["Cc1ccc2c(n1)C(=O)C(Cl)=C(Nc1ccc(C(C)C)cc1)C2=O", "SR leukemia", "class 1"],
  ["CNC(=O)c1cc(-c2ccc(NC(=S)Nc3cccc(C(F)(F)F)c3)cc2)nc2cccnc12", "SR leukemia", "class 3"],
  ["C#C[C@]1(O)CC[C@H]2[C@@H]3CC=C4c5sc(Nc6ccc(C)cn6)nc5CC[C@]4(C)[C@H]3CC[C@@]21C", "SR leukemia", "class 1"],
  ["O=C(CSc1nc2ccccc2c(=O)n1-c1ccccc1)Nc1ccc(S(=O)(=O)Nc2nccs2)cc1", "SR leukemia", "class 3"],
  ["CCNC(=O)Oc1ccc(/C(=C(/C)c2ccc(Cl)cc2)c2ccc(OCCN3CCCCCC3)cc2)cc1", "SR leukemia", "class 1"],
  ["Cc1ccc(NC2=C(Cl)C(=O)c3nc(C)ccc3C2=O)c(C)c1", "SR leukemia", "class 2"],
  ["COc1cc(C(=O)c2cc(C(C)=O)c3ccc(C)cn23)cc(OC)c1OC", "SR leukemia", "class 2"],
  ["COc1ccc(C(C)=C(c2ccc(OCCN(C)C)cc2)c2ccc(OCCN(C)C)cc2)cc1", "SR leukemia", "class 1"],
  ["O=S1SC(c2ccccc2)=NN1c1cc(F)cc(F)c1 (centres undefined)", "SR leukemia", "class 2"],
  ["Cc1csc(/N=C(N)/N=C(\\N)c2cccnc2)n1", "SR leukemia", "class 2"],
  ["CN1CCN(Cc2ccc(NC(=O)c3cncc(C#Cc4cnc5ccc(N)nn45)c3)cc2C(F)(F)F)CC1", "SR leukemia", "class 1"],
  ["C/C(=N\\NC(N)=S)c1nnn(-c2ccc([N+](=O)[O-])cc2)c1C", "SR leukemia", "class 3"],
  ["Cc1cc2nc(C(Cl)Cl)nc(-c3ccc(S(=O)(=O)N(C)C)cc3)n2n1", "SR leukemia", "class 2"],
  ["O=S(=O)(NCCCNc1nccc(-c2[nH]c(-c3ccccc3)nc2-c2ccc(F)c(O)c2)n1)c1cccc(F)c1", "SR leukemia", "class 2"],
  ["NC(=O)c1ncn2c(=O)n(CCF)nnc12", "SR leukemia", "class 2"],
  ["CN1c2ccccc2Sc2cc(/C=N/Nc3ccnc4cc(Cl)ccc34)ccc21", "SR leukemia", "class 1"],
  ["N/C(=N\\C(N)=N\\c1nc2ccccc2s1)c1ccc(Cl)cc1", "SR leukemia", "class 1"],
  ["Cc1ccc2c(n1)C(=O)C(Cl)=C(Nc1ccc(C(F)(F)F)cc1)C2=O", "SR leukemia", "class 2"],
  ["CCC1=Cc2c(OC)cccc2OC12C=Cc1c(OC)cccc1O2 (centres undefined)", "SR leukemia", "class 2"],
  ["COc1ccc(/C=N/NC(=O)c2c(N)nn(C)c2Nc2ccccc2)cc1", "SR leukemia", "class 2"],
  ["CC(O)c1cccc(/C(N)=N/C(N)=N/c2nc3ccccc3s2)c1 (centres undefined)", "SR leukemia", "class 3"],
  ["Cc1ccc(C(=O)CSc2nnc(-c3ccc(-c4ccc(Cl)cc4)nc3C)o2)cc1", "SR leukemia", "class 3"],
  ["C#CCn1cc(/C=N/Nc2nc(-c3ccc(Br)cc3)cs2)c2ccccc21", "SR leukemia", "class 3"],
  ["CN1CCN(c2ccc(Nc3nc(NCCCNS(=O)(=O)c4ccccc4)c4sccc4n3)cc2)CC1", "SR leukemia", "class 1"],
  ["C#C[C@]1(O)CC[C@H]2[C@@H]3CC=C4c5sc(Nc6cc(C)cc(C)c6)nc5CC[C@]4(C)[C@H]3CC[C@@]21C", "SR leukemia", "class 2"],
  ["C/C(=C(\\c1ccc(O)cc1)c1ccc(OCCN2CCCCCC2)cc1)c1ccc(Cl)cc1", "SR leukemia", "class 1"],
  ["O=C(Nc1ccc(N=Cc2c(O)[nH]c3ccccc23)cc1)Nc1ccc(S(=O)(=O)Nc2ncccn2)cc1", "SR leukemia", "class 3"],
  ["Cn1ncc2ncc(-c3ccc4ncc(C#N)c(N5CCc6cc(F)c(Cl)cc65)c4c3)cc21", "SR leukemia", "class 2"],
  ["Cc1ccc2c(n1)C(=O)C(Cl)=C(Nc1cc(C(F)(F)F)cc(C(F)(F)F)c1)C2=O", "SR leukemia", "class 1"],
  ["CC1=C(C)C(=O)C(Nc2ccc3c(c2)OCO3)=C(Br)C1=O", "SR leukemia", "class 3"],
  ["CCc1cc2c(cc1Cl)nc1c(=O)[nH]c(=O)nc-1n2CCOCC(C)(C)C", "SR leukemia", "class 2"],
  ["NS(=O)(=O)c1nnc(/N=C/c2c(O)[nH]c3ccccc23)s1", "SR leukemia", "class 3"],
  ["CN1CCN(c2ccc(Nc3nc(NCCCNS(=O)(=O)c4ccc(Cl)cc4)c4sccc4n3)cc2)CC1", "SR leukemia", "class 1"],
  ["COc1cc(C(=O)c2cc(C(C)=O)c3cccc(C)n23)cc(OC)c1OC", "SR leukemia", "class 2"],
  ["Fc1ccc(-c2cn3c(-c4c[nH]c5ccc(Br)cc45)csc3n2)cc1", "SR leukemia", "class 3"],
  ["CC(=O)Nc1ccccc1-c1nc2ccccc2s1", "SR leukemia", "class 3"],
  ["O=S(=O)(NCCCNc1nccc(-c2[nH]c(-c3ccccc3)nc2-c2ccc(F)c(O)c2)n1)c1cccc2ccccc12", "SR leukemia", "class 2"],
  ["COc1ccc(/C=N/N=C(/c2ccccc2)c2ccc3nc(-c4ccc(Cl)cc4)[nH]c3c2)cc1", "SR leukemia", "class 3"]
]}

Provenance of the data: PubChem BioAssay (NCI)
